Kindly supply the reported pKd values for the records listed here.
- testedOn: T1, LIN7B, Q9HAP6
- T1 sequence (Q9HAP6 88-185, limits assumed, looked up): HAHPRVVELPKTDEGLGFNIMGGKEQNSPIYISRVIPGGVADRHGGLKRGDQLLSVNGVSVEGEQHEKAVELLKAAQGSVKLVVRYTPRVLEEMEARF
- protocolSummary: holdup assay
- Design: key: below the threshold = too weak to quantify, mostly under pKd 3.1 to 4
- studyConditions: plain residues with an end cap or a label only (N-terminal biotin on a linker: ado-ado)
Enter a number only.

Query string: Bench note: what pKd did SRPHTNETSL [MCC, P23508] show?
Result string: 3.64

Query string: Bench note: what pKd did MQILSKPEFI [NPSR1, Q6W5P4] show?
Result string: 3.81

Query string: Bench note: what pKd did TKDKVQETQI [LRRC4, Q9HBW1] show?
Result string: 3.74

Query string: Bench note: what pKd did SAGADSETHC [SLCO1B1, Q9Y6L6] show?
Result string: 3.69

Query string: Bench note: what pKd did AHGSTRDQSI [KCNB1, Q14721] show?
Result string: 3.68

Query string: Bench note: what pKd did ADEMICITTL [CACNA1D, Q01668] show?
Result string: 3.95

Query string: Bench note: what pKd did IGHEDLETAV [DGKI, O75912] show?
Result string: 4.11

Query string: Bench note: what pKd did SSSVNVSSNL [CXCR1, P25024] show?
Result string: 3.58
